Hello, the source for this data is patent US6506758B2, in case you need it.

Target: bafilomycin-sensitive ATPase of chicken osteoclast
Assay: Inhibition of bafilomycin-sensitive ATPase activity in purified chicken osteoclast membrane vesicles (Pi release)
Format: biochemical
Details: membrane source not given, chicken osteoclast assumed
measured-parameter: IC50 (µM)
// return numeric value only (unit: µM, not printed)

Some compounds with recorded IC50:
• CN1C(C)(C)CC(NC(=O)c2ccc(-c3cc4cc(Cl)c(Cl)cc4[nH]3)cc2)CC1(C)C [Example 1] = 0.35
• COc1cc(-c2cc3cc(Cl)c(Cl)cc3[nH]2)ccc1C(=O)NC1CC(C)(C)N(C)C(C)(C)C1 [Example 3] = 1.3

What value of IC50 on bafilomycin-sensitive ATPase of chicken osteoclast does COc1cc(C(=O)NC2CC(C)(C)N(C)C(C)(C)C2)ccc1-c1cc2cc(Cl)c(Cl)cc2[nH]1 [Example 2] have? 0.096

* * *

Biological target: bafilomycin-sensitive ATPase in human kidney membranes
Assay: Inhibition of bafilomycin-sensitive ATPase in human kidney membranes
Settings: read-out: IC50 h kidney
Quick reference: pIC50 of the listed items.
Note on pIC50: it is the negative log10 of concentration, concentration in mol/L.

- CN1C(C)(C)CC(NC(=O)c2ccc(-c3cc4cc(Cl)c(Cl)cc4[nH]3)cc2)CC1(C)C: 5.90

Okay, next one:
Entry `COc1cc(C(=O)NC2CC(C)(C)N(C)C(C)(C)C2)ccc1-c1cc2cc(Cl)c(Cl)cc2[nH]1` has what pIC50? 6.70
